Measured protein stability index accompanies every entry in the list below.
B1: SMG5 (parent)
chain: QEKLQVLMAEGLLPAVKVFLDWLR

variants of: B1; experiment: protein stability index of a GFP-peptide fusion (GPS, HEK-293T) (PSI 1-6); higher = more stable; conditions: c terminus: a fixed tail appended;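 note: lentivirally expressed fusions sorted by FACS into six bins by GFP to DsRed ratio, PSI derived from sequencing read proportions per bin multiplied by bin number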
Give the value as a plain number.

Please review the following examples before continuing.
{"Mutant designation": "L4W", "Assay value": 2.18}
{"Mutant designation": "W22L", "Assay value": 2.47}
{"Mutant designation": "D21K", "Assay value": 2.54}
{"Mutant designation": "L13K", "Assay value": 1.62}
{"Mutant designation": "P14C", "Assay value": 1.7}

Query (variant): `Q5M` ; field requested: protein stability index
2.19
